# System: Salmonella typhimurium
# TEST_DETAILS: Antibacterial activity against Salmonella typhimurium ATCC 13311 assessed as growth inhibition after 24 hrs at 37 degC by iodonitrotetrazolium chloride staining based microdilution broth assay
# Assay type: functional, Salmonella enterica subsp. enterica serovar Typhimurium
# CONDITION_INFO: Salmonella enterica, ATCC 13311, 24 h
Labelling: MBC reported below 100 µM becomes class 1; at or above becomes class 0.

COMPOUND: O=C1CSC(c2ccc([N+](=O)[O-])cc2)N1c1nc(C23CC4CC(CC(C4)C2)C3)cs1 (configuration not stated)
GROUP_LABEL: class 0

COMPOUND: O=C1CSC(c2ccc(Br)cc2)N1c1nc(C23CC4CC(CC(C4)C2)C3)cs1 (configuration not stated)
GROUP_LABEL: class 0

COMPOUND: O=C1CSC(c2cccc(Cl)c2)N1c1nc(C23CC4CC(CC(C4)C2)C3)cs1 (configuration not stated)
GROUP_LABEL: class 1

COMPOUND: O=C1CSC(c2cccc(Cl)c2Cl)N1c1nc(C23CC4CC(CC(C4)C2)C3)cs1 (configuration not stated)
GROUP_LABEL: class 1

COMPOUND: CN[C@@H]1[C@H](O[C@H]2[C@H](O[C@H]3[C@H](O)[C@@H](O)[C@H](N=C(N)N)[C@@H](O)[C@@H]3N=C(N)N)O[C@@H](C)[C@]2(O)C=O)O[C@@H](CO)[C@H](O)[C@H]1O
GROUP_LABEL: class 0

COMPOUND: COc1ccc(OC)c(C2SCC(=O)N2c2nc(C34CC5CC(CC(C5)C3)C4)cs2)c1 (configuration not stated)
GROUP_LABEL: class 0

COMPOUND: O=C1CSC(c2c(Cl)cccc2Cl)N1c1nc(C23CC4CC(CC(C4)C2)C3)cs1 (configuration not stated)
GROUP_LABEL: class 0

COMPOUND: O=C1CSC(c2ccccc2Cl)N1c1nc(C23CC4CC(CC(C4)C2)C3)cs1 (configuration not stated)
GROUP_LABEL: class 0

COMPOUND: O=C1CSC(c2cccc(F)c2)N1c1nc(C23CC4CC(CC(C4)C2)C3)cs1 (configuration not stated)
GROUP_LABEL: class 1

COMPOUND: CC1(C)S[C@@H]2[C@H](NC(=O)[C@H](N)c3ccccc3)C(=O)N2[C@H]1C(=O)O
GROUP_LABEL: class 0

COMPOUND: COc1ccc(C2SCC(=O)N2c2nc(C34CC5CC(CC(C5)C3)C4)cs2)cc1 (configuration not stated)
GROUP_LABEL: class 1

COMPOUND: O=C1CSC(c2ccc(Cl)cc2)N1c1nc(C23CC4CC(CC(C4)C2)C3)cs1 (configuration not stated)
GROUP_LABEL: class 1

###

# TESTED_TARGET: Human immunodeficiency virus type 1 reverse transcriptase (Human immunodeficiency virus 1) (UniProt Q72547)
# TEST_DETAILS: Inhibition of HIV1 reverse transcriptase assessed as residual enzyme activity by measuring reduction in [3H]dTTP incorporation into poly(rA)-oligo(dT) at 4 uM incubated for 15 mins by scintillation counting method relative to control
ATTRIBUTE_MEASURED: Activity (%)

MOLECULE: COc1ccc(C2SCC(=O)N2c2nc(C34CC5CC(CC(C5)C3)C4)cs2)cc1 (stereo not given)
ATTRIBUTE_MEASURED: Activity
MEASURED_NUMBER: 100
--
MOLECULE: O=C1CSC(c2cccc(Cl)c2)N1c1nc(C23CC4CC(CC(C4)C2)C3)cs1 (stereo not given)
ATTRIBUTE_MEASURED: Activity
MEASURED_NUMBER: 99.3
--
MOLECULE: O=C1CSC(c2c(Cl)cccc2Cl)N1c1nc(C23CC4CC(CC(C4)C2)C3)cs1 (stereo not given)
ATTRIBUTE_MEASURED: Activity
MEASURED_NUMBER: 52.5
--
MOLECULE: O=C1CSC(c2ccccc2Cl)N1c1nc(C23CC4CC(CC(C4)C2)C3)cs1 (stereo not given)
ATTRIBUTE_MEASURED: Activity
MEASURED_NUMBER: 99.1
--
MOLECULE: O=C1CSC(c2ccc(Cl)cc2)N1c1nc(C23CC4CC(CC(C4)C2)C3)cs1 (stereo not given)
ATTRIBUTE_MEASURED: Activity
MEASURED_NUMBER: 99
--
MOLECULE: O=C1CSC(c2cccc(F)c2)N1c1nc(C23CC4CC(CC(C4)C2)C3)cs1 (stereo not given)
ATTRIBUTE_MEASURED: Activity
MEASURED_NUMBER: 100
--
MOLECULE: O=C1CSC(c2ccc([N+](=O)[O-])cc2)N1c1nc(C23CC4CC(CC(C4)C2)C3)cs1 (stereo not given)
ATTRIBUTE_MEASURED: Activity
MEASURED_NUMBER: 99.3
--
MOLECULE: COc1ccc(OC)c(C2SCC(=O)N2c2nc(C34CC5CC(CC(C5)C3)C4)cs2)c1 (stereo not given)
ATTRIBUTE_MEASURED: Activity
MEASURED_NUMBER: 80.7
--
MOLECULE: O=C1CSC(c2cccc(Cl)c2Cl)N1c1nc(C23CC4CC(CC(C4)C2)C3)cs1 (stereo not given)
ATTRIBUTE_MEASURED: Activity
MEASURED_NUMBER: 100
--
MOLECULE: O=C1CSC(c2ccc(Br)cc2)N1c1nc(C23CC4CC(CC(C4)C2)C3)cs1 (stereo not given)
ATTRIBUTE_MEASURED: Activity
MEASURED_NUMBER: 59.9
